The values you see were collected from patent US10316017B2.

- ASSAY TARGET: human Cot catalytic domain (30-397 amino acids) (Homo sapiens, UniProt P41279)
- Construct: Purified recombinant human Cot catalytic domain (30-397 amino acids) was purchased from Cama Biosciences; purchased Cama Biosciences (so in the source)
- Sequence (P41279 30-397): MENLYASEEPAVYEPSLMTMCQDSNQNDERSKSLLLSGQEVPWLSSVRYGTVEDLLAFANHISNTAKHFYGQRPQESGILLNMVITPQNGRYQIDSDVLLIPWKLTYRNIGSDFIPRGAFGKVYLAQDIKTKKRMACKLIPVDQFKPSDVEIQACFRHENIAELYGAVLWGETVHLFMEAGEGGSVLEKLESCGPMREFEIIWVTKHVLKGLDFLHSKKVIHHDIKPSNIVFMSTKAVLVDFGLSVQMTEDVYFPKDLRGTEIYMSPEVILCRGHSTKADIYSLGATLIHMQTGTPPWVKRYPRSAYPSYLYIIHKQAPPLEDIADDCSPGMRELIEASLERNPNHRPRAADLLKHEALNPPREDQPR
- EXPERIMENTAL DETAILS: High Throughput Cot Biochemical Assay (KinEASE TR-FRET)
- EXPERIMENTAL PARAMETERS: Cot KinEASE TR-FRET, 400 μM ATP; read-out: IC50 HTRF
- Description: Example 61: High Throughput Cot Biochemical Assay In this assay, Cot-catalyzes the phosphorylation of a XL665-labeled peptide substrate. Europium conjugated phospho-tyrosine specific antibody binds the resulting phosphorylated peptide. […] Purified recombinant human Cot catalytic domain (30-397 amino acids) was purchased from Cama Biosciences. […]
RECORDED METRIC: pIC50
To interpret pIC50, take it as minus log10 of a concentration measured in moles per litre.

MOLECULE	QUANTITATIVE RESULT
Cc1c(C#N)cccc1[C@H](Nc1cc(Cl)c2ncc(C#N)c(NCC(C)(C)C(F)(F)F)c2c1)c1cn(C2(C)CC2)nn1 [Example 1104]	8.52
Cc1c(-c2cnn(C)c2)cccc1[C@H](Nc1cc(C#N)c2ncc(C#N)c(NCC(C)(C)C)c2c1)c1cn(C2(C(F)F)CC2)nn1 [Example 1142]	8.70
CC(C)(C)CNc1c(C#N)cnc2c(F)cc(N[C@H](c3cn(C4(C(N)=O)CC4)nn3)c3ccccc3Cl)cc12 [Example 999]	7.20
CC(C)(C)CNc1c(C#N)cnc2c(Cl)cc(N[C@@H](c3ccc(F)cc3)c3cn(C45CC(C4)C5)nn3)cc12 [Example 1092]	7.70
N#Cc1cnc2c(Cl)cc(N[C@H](c3ccc(F)cc3)c3cn(C4CCNCC4)nn3)cc2c1Nc1ccc(F)c(Cl)c1 [Example 850]	6.03

Would you kindly look at the next entry?
# query: pIC50 of entry Cn1cc(C(Nc2cc(Cl)c3ncc(C#N)c(Nc4ccc(F)c(Cl)c4)c3c2)c2cccc(CN3CCCC3)c2)nn1 (stereo not drawn) [Example 852]
7.66
